# Assay target: T1, DAPP1 SH2 domain (human, UniProt Q9UN19 35-129)
# T1 construct: DAPP1, human; source: bacterial expression, purified
# T1 sequence (looked up): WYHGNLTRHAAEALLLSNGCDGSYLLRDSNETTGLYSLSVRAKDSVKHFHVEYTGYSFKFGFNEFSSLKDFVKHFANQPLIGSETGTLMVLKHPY
# Measurement protocol: peptide or protein array; SH2/PTB proteins spotted on aldehyde slides, rhodamine peptide titrated in buffer B (20 mM HEPES, 100 mM KCl, 0.1% Tween-20, 5 mM DTT, pH 7.8), 1 h at room temperature; replicate assays
# Test context: both partners purified
Non-standard residues stand in square brackets, D forms with d. No end group written: not given here. pY = N[C@@H](Cc1ccc(OP(=O)(O)O)cc1)C(=O)O; Rhodamine = not defined here

| Binder | Kd, nM |
| --- | --- |
| Rhodamine-ETDG[pY]VAPLTCSD (reading uncertain) [ErbB2 pY1127 phosphopeptide, rhodamine-labelled, for protein microarrays] | 2670 |
